Cited source: ChEMBL document CHEMBL1811881

target-or-test-system: 17-beta-hydroxysteroid dehydrogenase type 3 (Homo sapiens) (UniProt P37058)
Sequence (whole entry): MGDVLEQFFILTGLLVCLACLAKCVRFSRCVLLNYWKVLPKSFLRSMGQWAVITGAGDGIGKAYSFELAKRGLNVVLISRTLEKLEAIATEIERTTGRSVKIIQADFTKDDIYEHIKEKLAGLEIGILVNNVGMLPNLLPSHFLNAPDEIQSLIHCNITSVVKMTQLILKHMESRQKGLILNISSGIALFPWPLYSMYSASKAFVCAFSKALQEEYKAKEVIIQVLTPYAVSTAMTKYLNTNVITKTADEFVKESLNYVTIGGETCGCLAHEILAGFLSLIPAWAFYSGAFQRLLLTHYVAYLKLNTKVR
assay-comment: Inhibition of 17Beta-HSD3 expressed in intact HEK293 cells assessed as transformation of [14C]-4-androstene-3,17-dione into [14C]-testosterone in presence of NADPH at 0.1 uM after 1 hr incubation
Type: cell-based
observation-type: inhibition (%)
Kindly provide the numeric value in % only, without the unit symbol.

structure-as-smiles	inhibition, %
C[C@@H]1CN(Cc2cc(C(F)(F)F)ccc2C(F)(F)F)[C@@H](C)CN1C[C@@]1(O)CC[C@@]2(C)[C@@H](CC[C@@H]3[C@@H]2CC[C@]2(C)C(=O)CC[C@@H]32)C1	23
C[C@]12CC[C@](O)(CN3CCN(Cc4cccc(C(F)(F)F)c4)CC3)C[C@@H]1CC[C@@H]1[C@@H]2CC[C@]2(C)C(=O)CC[C@@H]12	52
CCN(Cc1ccccc1)C[C@@]1(O)CC[C@@]2(C)[C@@H](CC[C@@H]3[C@@H]2CC[C@]2(C)C(=O)CC[C@@H]32)C1	86

// compound C[C@]12CC[C@](O)(CN3CCN(C(=O)c4cccc(C(F)(F)F)c4)CC3)C[C@@H]1CC[C@@H]1[C@@H]2CC[C@]2(C)C(=O)CC[C@@H]12 , assay 17-beta-hydroxysteroid dehydrogenase type 3 (Homo sapiens) (UniProt P37058), inhibition value: 91

Form: item CN1CCN(C[C@@]2(O)CC[C@@]3(C)[C@@H](CC[C@@H]4[C@@H]3CC[C@]3(C)C(=O)CC[C@@H]43)C2)CC1 ; test system 17-beta-hydroxysteroid dehydrogenase type 3 (Homo sapiens) (UniProt P37058); inhibition: 2

Entry C[C@@H]1CN(C(=O)c2ccc(C(F)(F)F)cc2)[C@@H](C)CN1C[C@@]1(O)CC[C@@]2(C)[C@@H](CC[C@@H]3[C@@H]2CC[C@]2(C)C(=O)CC[C@@H]32)C1 , 17-beta-hydroxysteroid dehydrogenase type 3 (Homo sapiens) (UniProt P37058) data, inhibition value: 61

Measured on 17-beta-hydroxysteroid dehydrogenase type 3 (Homo sapiens) (UniProt P37058), C[C@]12CC[C@](O)(CN3CCN(Cc4ccccc4)CC3)C[C@@H]1CC[C@@H]1[C@@H]2CC[C@]2(C)C(=O)CC[C@@H]12 has a documented inhibition of 37

====

target-or-test-system: 17-beta-hydroxysteroid dehydrogenase type 3 (Homo sapiens) (UniProt P37058)
assay-comment: Inhibition of 17Beta-HSD3 expressed in homogenized HEK293 cells assessed as transformation of [14C]-4-androstene-3,17-dione into [14C]-testosterone in presence of NADPH at 0.1 uM
Assay type: cell-based
// Criterion not met strictly below 80% in inhibition; Criterion met otherwise

structure-as-smiles	target-or-test-system	label-class
C[C@@H]1CN(Cc2cccc(SC(F)(F)F)c2)[C@@H](C)CN1C[C@@]1(O)CC[C@@]2(C)[C@@H](CC[C@@H]3[C@@H]2CC[C@]2(C)C(=O)CC[C@@H]32)C1	17-beta-hydroxysteroid dehydrogenase type 3 (Homo sapiens) (UniProt P37058)	Criterion met
C[C@@H]1CN(Cc2ccccc2C(F)(F)F)[C@@H](C)CN1C[C@@]1(O)CC[C@@]2(C)[C@@H](CC[C@@H]3[C@@H]2CC[C@]2(C)C(=O)CC[C@@H]32)C1	17-beta-hydroxysteroid dehydrogenase type 3 (Homo sapiens) (UniProt P37058)	Criterion met
C[C@]12CC[C@](O)(CN3CCN(S(=O)(=O)c4ccccc4C(F)(F)F)CC3)C[C@@H]1CC[C@@H]1[C@@H]2CC[C@]2(C)C(=O)CC[C@@H]12	17-beta-hydroxysteroid dehydrogenase type 3 (Homo sapiens) (UniProt P37058)	Criterion met

Q: Does the reported inhibition for C[C@@H]1CN(S(=O)(=O)c2ccccc2C(F)(F)F)[C@@H](C)CN1C[C@@]1(O)CC[C@@]2(C)[C@@H](CC[C@@H]3[C@@H]2CC[C@]2(C)C(=O)CC[C@@H]32)C1 fall at or above the 80% mark?
A: Criterion met

Q: In plain terms: is recorded inhibition at least 80% for C[C@]12CC[C@@]3(C[C@@H]1CC[C@@H]1[C@@H]2CC[C@]2(C)C(=O)CC[C@@H]12)CN(CCBr)C(=O)O3 ?
A: Criterion not met
